Reference source for all entries: patent US20160193206A1

- Tested on: MOLM-13 cell line
- PROCEDURE_TEXT: MOLM-13 cell proliferation assay (alamarBlue)
- Type: cell-based
- SETUP_CONDITIONS: Homo sapiens, inhibition of proliferation of MOLM-13 cells (acute myeloid leukaemia), 96 hours incubation
pIC50: −log10 of the molar value.
MEASUREMENT_NAME: pIC50

Worked cases, pIC50 given:
| RECORD_SMILES | pIC50 |
| --- | --- |
| COc1cc(C(=O)NCCN2CCN(C)CC2)ccc1Nc1ccc2c(n1)N(C1CCCCCC1)[C@H](C)C(=O)N2C | 6.45 |
| COc1cc(C(=O)N2CCN(C(C)C)CC2)ccc1Nc1ccc2c(n1)N(Cc1ccccc1)[C@H](C)C(=O)N2C | 6.77 |

P = COc1cc(C(=O)NCCN2CCN(C)CC2)ccc1Nc1ccc2c(n1)N(C1CCOCC1)[C@H](C)C(=O)N2C
Q = C[C@@H]1C(=O)N(C)c2ccc(Nc3ccc(C(=O)NCCN4CCN(C)CC4)cc3)nc2N1Cc1ccccc1
I need your help: which of the pair P , Q has higher pIC50? Return value: the label identifying the chosen record.
Q
